- Test system: OVCAR-8 ovarian
- protocol: NCI tumour cell line growth inhibition, 48 h
quantity name: GI50

Q. Tell me the measured GI50 of "C=C(CN1CCN(c2ccccc2OC)CC1)c1ccc(C(=O)Nc2ccccc2N)cc1" , please.
A. 9280 nM

Q. Try this molecule too: "O=C1c2ccccc2C(=O)c2c1ccc(C(Br)Br)c2[N+](=O)[O-]"
A. 1950 nM

Q. Try this molecule too: "COc1ccc(OC)c(-c2nc3sccn3c2/C=C2/C(=O)Nc3ccc(Cl)cc32)c1"
A. 34400 nM

Q. Try this molecule too: "CN(C)c1ccc(/C=C2\C[C@H]3[C@@H]4CC=C5C[C@@H](N6CCCC6)CC[C@]5(C)[C@H]4CC[C@]3(C)[C@H]2O)cc1"
A. 2870 nM

Now consider a different molecule.
Q. Tell me the measured GI50 of "O=C(NCc1cccnc1)/C(=C\c1ccc(Br)cc1)S(=O)(=O)c1ccccc1" , please.
A. 705 nM

---

# maps each entry to its TGI
- Tested on: SNB-19 CNS
- protocol: NCI tumour cell line growth inhibition, 48 h

Recorded TGI, per entry:
Q. Tell me the measured TGI of "O=S1(=O)NNC(=NCc2ccc(Cl)cc2)c2ccccc21" , please.
A. > 100 µM

Q. Try this compound too: NC(=O)CCC(NC(=O)OCc1ccccc1)C(=O)OCC(=O)c1ccccc1 (stereo unspecified)
A. > 100 µM

Q. Try this compound too: "Cc1ccc(Cl)cc1Nc1nc(C(F)(F)F)ccc1C(=O)Nc1cccc(C(F)(F)F)c1"
A. 14.6 µM

Q. Try this compound too: "Cc1cnc[nH]c1=O"
A. > 100 µM

Q. Try this compound too: "COc1ccc(-c2nn(-c3cccc(Cl)c3)cc2C=C(C#N)C#N)cc1"
A. > 100 µM

More entries:
Q. Tell me the measured TGI of CCOC(=O)c1nc2c3c(ncn2n1)Oc1c(c(-c2ccccc2)nn1-c1ccccc1)C3c1ccc(Cl)cc1 (stereo unspecified) , please.
A. > 100 µM

Q. Try this compound too: C#CCN1C(=O)/C(=c2\sc3n(c2=O)C2C(NN=3)N(CC)C(=O)N2CC)c2ccccc21 (stereo unspecified)
A. > 100 µM

Q. Try this compound too: "CC(=O)NS(=O)(=O)c1ccc(NC(=O)COC(=O)c2cccc3c(=O)c4ccccc4[nH]c23)cc1"
A. > 100 µM

Q. Try this compound too: "O=C(c1ccccc1Nc1ccnc(C(F)(F)F)c1)N1CCN(c2cccc(Cl)c2)CC1"
A. > 100 µM

Q. Try this compound too: "O=C1c2ccccc2C(=O)c2c1ccc(C(Br)Br)c2[N+](=O)[O-]"
A. 4.42 µM

Q. Try this compound too: "CCOC(=O)C(C)(C)Oc1ccc2c(=O)cc(-c3ccccc3)oc2c1"
A. 42.8 µM

Q. Try this compound too: OC1CCCC1C(O)(C(F)(F)F)C(F)(F)F (stereo unspecified)
A. > 100 µM

Q. Try this compound too: "Cc1cc(Cc2c(F)c(F)c(Cc3cc(C)no3)c(F)c2F)on1"
A. > 100 µM

Q. Try this compound too: "O=C1NC(=O)/C(=C/C=C/c2ccccc2)S1"
A. 20.3 µM

Q. Try this compound too: "Cn1cnc([N+](=O)[O-])c1Sc1ccccn1"
A. > 100 µM

Q. Try this compound too: "CN(C)C[C@H]1CC[C@@H](CN(C)C)C1=O"
A. > 50 µM

Q. Try this compound too: "Cc1cc(NS(=O)(=O)c2ccc(Nc3c4ccccc4nc4c(C(=O)Nc5ccc(S(=O)(=O)N=C(N)N)cc5)cccc34)cc2)no1"
A. > 100 µM

Q. Try this compound too: "S=C(N/N=C\C=N/NC(=S)N1CCCCCC1)N1CCCCCC1"
A. > 100 µM

Q. Try this compound too: "Cc1cc2ccccc2n1CC(=O)NCC(C)C"
A. > 100 µM

---

- Test system: SNB-75 CNS
- protocol: NCI tumour cell line growth inhibition, 48 h
# maps each entry to its log10(TGI)
Record value = log10 of TGI given in µM.

Q. Tell me the measured log10(TGI) of "O=C1c2[nH]cc(CN3CCNCC3)c2C(=O)c2c1c(O)c1ccccc1c2O" , please.
A. 1.58

More entries:
Q. Tell me the measured log10(TGI) of "O=C1c2ccccc2C(=O)c2c1ccc(C(Br)Br)c2[N+](=O)[O-]" , please.
A. 1.46

Q. Try this compound too: "CCCCCc1cc2c(cc1O)CC[C@@H]1[C@@H]2CC[C@]2(C)[C@@H](O)CC[C@@H]12"
A. 1.48

Q. Try this compound too: "CCN1CCN(c2nc(NNC(=O)Cc3ccccc3)nc(N3CCN(C(c4ccccc4)c4ccccc4)CC3)n2)CC1"
A. 0.64

Q. Try this compound too: O=C1C2c3[nH]c4ccccc4c3[C@@H]3CCCCCCCCCCC3C2C(=O)N1c1ccccc1 (stereo not given in full)
A. 0.81

Q. Try this compound too: "CCN(CC)CCO/N=C1\CC[C@H]2[C@@H]3CC=C4C[C@@H](O)CC[C@]4(C)[C@H]3CC[C@]12C"
A. 1.96

Q. Try this compound too: CN1/C(=C\C(I)C(I)C2=[N+](C)c3ccccc3C2(C)C)C(C)(C)c2ccccc21 (stereo not given)
A. 0.99

---

# maps each entry to its TGI
- System: SF-539 CNS
- protocol: NCI tumour cell line growth inhibition, 48 h

Q. Tell me the measured TGI of "Cc1cc2ccccc2c[n+]1CC(O)C[n+]1cc2ccccc2cc1C" , please.
A. > 100 µM

Now consider a different molecule.
Q. Tell me the measured TGI of "NCCCCCS(=O)(=O)O" , please.
A. > 100 µM

---

- System: OVCAR-3 ovarian
- protocol: NCI tumour cell line growth inhibition, 48 h
quantity name: TGI (µM)
Use µM as the unit, but write only the number.

Recorded TGI, per entry:
Q. Tell me the measured TGI of O=C(CC(=O)N1N=C(c2ccccc2)C(N=Nc2ccc(C(=O)O)cc2)C1=O)Nc1ccc(F)cc1 (centres undefined) , please.
A. 56.2

Q. Try this molecule too: "N#Cc1c(Nc2ccc(F)cc2)[n+]([O-])c2ccc(Cl)cc2[n+]1[O-]"
A. 13.3

Q. Try this molecule too: "O=C1/C(=C/c2ccccc2)CCc2ccc(Cl)nc21"
A. 46.9

Q. Try this molecule too: C#CCN1C(=O)/C(=c2\sc3n(c2=O)C2C(NN=3)N(CC)C(=O)N2CC)c2ccccc21 (centres undefined)
A. 1.69

Q. Try this molecule too: "Cn1c2c([N+](=O)[O-])[se]nc2c(=O)n1-c1ccc([N+](=O)[O-])cc1"
A. 3.12

Now consider a different molecule.
Q. Tell me the measured TGI of "CCc1nnc(-n2c(C)nc3cc(Cl)ccc3c2=O)s1" , please.
A. 43

---

- Test system: SK-MEL-28 melanoma
- protocol: NCI tumour cell line growth inhibition, 48 h
quantity name: TGI (µM)
Use µM as the unit, but write only the number.

Recorded TGI, per entry:
Q. Tell me the measured TGI of CCCCCCCCCCCC(=O)OCC1OC(n2cc(F)c(=O)[nH]c2=O)C(NC(=O)OCc2ccccc2)C(O)C1O (configuration not stated) , please.
A. 35.4

Q. Try this compound too: COc1ccc(SC2c3cc(OC)c(OC)cc3Oc3nc(N)c(C#N)c(N)c32)cc1 (configuration not stated)
A. 2.91

More entries:
Q. Tell me the measured TGI of CC[C@]12C=CCN3CCC4(c5cc(N=Nc6ccccc6)c(OC)cc5N(C)[C@H]4[C@@](O)(C(=O)OC)[C@@H]1OC(C)=O)[C@@H]32 (some centres not stated) , please.
A. 36.8

Q. Try this compound too: "COc1ccc(-c2nn(-c3cccc(Cl)c3)cc2C=C(C#N)C#N)cc1"
A. 5.84

Q. Try this compound too: "CN(C)CCCNc1nn2c(=O)c3ccccc3nc2c2ccccc12"
A. 29.3

Q. Try this compound too: "Cc1c2c3cc(O)ccc3nc-2n(C)c2ccccc12"
A. 5.97

Q. Try this compound too: "O=C1NC(=O)/C(=C/C=C/c2ccccc2)S1"
A. 36

Q. Try this compound too: "CCCCCCCCCCCCn1c(C)nc2ccccc21"
A. 34.5

Q. Try this compound too: "COc1ccc(/C=C/c2c(C(=O)/C=C/c3ccc(Cl)cc3)c(C)nc3ccccc23)cc1"
A. 3.42

---

- System: DMS 114 small cell lung
- protocol: NCI tumour cell line growth inhibition, 48 h
quantity name: TGI

Recorded TGI, per entry:
Q. Tell me the measured TGI of "COC(=O)C(=O)C1(CCC(C)=O)c2ccccc2-c2ccccc21" , please.
A. > 100 µM

Q. Try this compound too: "Cc1csc2c1C(=O)c1ccsc1C2=O"
A. 3.1 µM

Q. Try this compound too: COC(=O)C1=C(OC)c2cc3c(cc2C(c2cc(OC)c(OC)c(OC)c2)C1C(=O)OC)OCO3 (stereo unspecified)
A. > 100 µM

Q. Try this compound too: "Cc1nc(C)c(C(=O)Nc2cccc3c2C(=O)NC3=O)cc1C(=O)Nc1cccc2c1C(=O)NC2=O"
A. > 100 µM

Q. Try this compound too: "Cc1ccc2nc3c(C)c(Cl)c(=O)cc-3sc2c1"
A. 12.9 µM

Q. Try this compound too: C=CN1C(=O)OC(c2ccccc2)C1c1ccccc1 (stereo unspecified)
A. > 100 µM

Q. Try this compound too: NC(Cc1cc(I)c(O)c(I)c1)C(=O)O (stereo unspecified)
A. > 293 µM

Q. Try this compound too: O=C1C2c3[nH]c4ccccc4c3[C@@H]3CCCCCCCCCCC3C2C(=O)N1c1ccccc1 (stereo partly specified)
A. 37 µM

Q. Try this compound too: COc1cc(C2C3=C(CCC3=O)Oc3cc4c(cc32)OCO4)cc(OC)c1OC (stereo unspecified)
A. 0.725 µM

Q. Try this compound too: O=C(N/N=C(/c1nc2ccc(Cl)cc2[nH]c1=O)C(O)c1ccc(Cl)cc1Cl)c1ccncc1 (stereo unspecified)
A. > 100 µM

More entries:
Q. Tell me the measured TGI of "Cc1cnc[nH]c1=O" , please.
A. > 100 µM
